- PROTOCOL: amyloid nucleation score (Sup35N fusion, yeast selection) (log enrichment); library NNK1; higher = more nucleation; inactive = no reads after selection;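 note: zero at mode of non-aggregating sequences after 7 days selection at 30°C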
Below, each entry is listed with its recorded amyloid nucleation score.
Could you keep your reply to the number by itself?

LYTCCSTYVCSNLGRNVK
7.07
RSARIKNWSSLYLWMINSCV
0.469
DYFRYRIFKKSYHKPAVICI
-0.415

Next, consider the following substance.
**Query** // lookup amyloid nucleation score for `KVVRAACCQKMFERVGVHGG`
**Result** -0.842

====

- PROTOCOL: amyloid nucleation score (Sup35N fusion, yeast selection) (log enrichment); library NNK1; higher = more nucleation; inactive = no reads after selection
READOUT_NAME: amyloid nucleation score
Could you keep your reply to the number by itself?

HPLWGPYR
0.518

**Query** // lookup amyloid nucleation score for `VPILIVFQQVADASRIRIMR`
**Result** 4.77

**Query** For `MFFLYCLARRVGKLMECRV` then?
**Result** 1.28

**Query** For `RGPLDP` then?
**Result** 0.361
